Where do these numbers come from? They come from ChEMBL document CHEMBL5352403.

Target: Amine oxidase [flavin-containing] A (Homo sapiens, UniProt P21397)
Sequence (P21397 whole entry): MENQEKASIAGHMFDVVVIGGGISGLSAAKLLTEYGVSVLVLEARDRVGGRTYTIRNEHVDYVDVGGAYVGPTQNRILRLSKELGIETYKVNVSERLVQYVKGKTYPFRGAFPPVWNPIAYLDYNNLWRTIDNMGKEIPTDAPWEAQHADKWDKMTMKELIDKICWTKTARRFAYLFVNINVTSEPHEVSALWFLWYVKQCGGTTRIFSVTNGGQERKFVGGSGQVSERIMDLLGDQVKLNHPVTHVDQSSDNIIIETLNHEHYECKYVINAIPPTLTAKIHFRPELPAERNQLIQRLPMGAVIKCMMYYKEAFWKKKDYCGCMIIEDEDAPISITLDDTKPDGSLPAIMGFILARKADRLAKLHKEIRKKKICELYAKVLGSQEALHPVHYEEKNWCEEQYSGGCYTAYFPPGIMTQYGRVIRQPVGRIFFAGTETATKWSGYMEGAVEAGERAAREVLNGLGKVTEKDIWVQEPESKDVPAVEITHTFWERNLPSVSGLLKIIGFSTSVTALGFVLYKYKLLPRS
Experiment: Inhibition of recombinant human MAO-A assessed as inhibition constant incubated for 60 mins by Amplex Red reagent and horseradish peroxidase based fluorometric analysis
test.readout: Ki (nM)

- C[C@H]1OC(=O)N(c2ccccc2)C1=O: 160
- O=C(CN1CCNCC1)N1N=C(c2ccc(F)cc2)CC1c1cc(Cl)ccc1O (configuration not stated): 160

* * *

target: Amine oxidase [flavin-containing] B (Homo sapiens, UniProt P27338); test: Inhibition of human MAO-B using p-tyramine as substrate incubated for 10 mins by Amplex Red reagent and horseradish peroxidase based fluorescence analysis
pIC50: −log10 of the molar value.
test.readout: pIC50

* Cc1ccc2oc(=O)c(-c3cccc(N)c3)cc2c1 | 7.22
* O=c1oc2cc(Br)ccc2cc1-c1ccc(Br)nn1 | 7.22

* * *

biological target: UniProt P27338; experiment: Inhibition of recombinant human MAO-B using p-tyramine as substrate incubated for 45 mins by Amplex Red reagent and horseradish peroxidase based fluorescence microplate reader analysis
test.readout: IC50 (nM)

- O=C(/C=C/c1ccc(C(F)(F)F)cc1)c1ccc[nH]1: 80
- O=C(c1ccccc1)N1CCN(C(c2ccccc2)c2ccccc2)CC1: 80

* * *

target: Amine oxidase [flavin-containing] B (Homo sapiens); assay: Inhibition of human MAO-B using p-tyramine as substrate incubated for 15 mins by horseradish peroxidase based fluorescence microplate reader analysis
test.readout: IC50 (nM)

* Cc1cc(=O)c(O)c(CO)n1CCCn1cc(COc2cc3ccccc3oc2=O)nn1 | 680
* Cc1ccc2oc(=O)c(-c3ccc([N+](=O)[O-])cc3)cc2c1 | 860

* * *

target: Amine oxidase [flavin-containing] A (Homo sapiens); assay: Inhibition of recombinant human MAO-A assessed as inhibition constant by Lineweaver-Burk plot analysis
test.readout: Ki (nM)

- COc1ccc(C2CC(c3ccccc3)=NN2C(=O)Cn2c(=O)oc3ccccc32)cc1OC (configuration not stated): 850
- Cc1ccc(/C=N/NC(=O)c2cc(-c3ccccc3)on2)cc1: 850

* * *

Target: Amine oxidase [flavin-containing] B (Homo sapiens)
Sequence (P27338 whole entry): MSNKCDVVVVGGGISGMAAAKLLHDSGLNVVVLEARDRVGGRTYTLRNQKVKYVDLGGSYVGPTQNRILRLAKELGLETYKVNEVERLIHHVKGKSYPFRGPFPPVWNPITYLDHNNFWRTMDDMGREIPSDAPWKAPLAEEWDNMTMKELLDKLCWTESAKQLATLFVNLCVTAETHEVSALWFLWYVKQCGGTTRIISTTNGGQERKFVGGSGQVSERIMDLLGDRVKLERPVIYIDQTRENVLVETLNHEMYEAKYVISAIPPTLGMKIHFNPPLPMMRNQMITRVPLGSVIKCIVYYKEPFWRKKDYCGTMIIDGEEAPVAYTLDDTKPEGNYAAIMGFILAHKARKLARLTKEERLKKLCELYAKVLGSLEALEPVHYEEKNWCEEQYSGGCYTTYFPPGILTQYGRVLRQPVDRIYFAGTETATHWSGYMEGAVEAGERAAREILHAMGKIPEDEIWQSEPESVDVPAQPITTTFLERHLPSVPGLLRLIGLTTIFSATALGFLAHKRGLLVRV
Test: Inhibition of MAO-B (unknown origin) using p-tyramine as substrate incubated for 60 mins by Ampliflu red reagent and horseradish peroxidase based fluorometric analysis
pIC50: −log10 of the molar value.
test.readout: pIC50

* O=C(/C=C(O)/C=C/c1ccccc1)c1ccccc1O | 7.31
* Cc1c(/N=C/c2ccc([N+](=O)[O-])cc2)c(=O)n(-c2ccccc2)n1C | 7.31
